Value source: PubChem BioAssay AID1159580

Experiment: chemical genetic growth profiling, strain panel (AID 1159580);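 also: tested at 20 µM; growth read once vehicle control cultures reached saturation at 30 °C; 1 = growth at the plate median or of vehicle wells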
Settings: S. cerevisiae deletion strains, growth OD, locus YLL041C, strain sdh2, active compounds read low
The campaign covered roughly 5,500 compounds. About 2,000 (36%) were called active. Not shown: some 18% with an inconclusive outcome. The list shows a part of the results.
Lab note: compare normalized growth with 1, writing criterion met if less and criterion not met if equal or more.

Example entries and their recorded answers appear below.
MOLECULE: Oc1ccc2c(c1)O[C@H](c1ccc(O)c(O)c1)[C@@H](O)C2
CAT: criterion not met

MOLECULE: CC[C@]1(O)CC2CN(CCc3c([nH]c4ccccc34)[C@@](C(=O)OC)(c3cc4c(cc3OC)N(C)[C@H]3[C@@](O)(C(=O)OC)[C@H](OC(C)=O)[C@]5(CC)C=CCN6CC[C@]43[C@@H]65)C2)C1 (some centres not stated)
CAT: criterion met

MOLECULE: C=CCCCCCCCCCCCc1ccco1
CAT: criterion met

MOLECULE: c1ccc2c(c1)CCCC2C1=NCCN1 (configuration not stated)
CAT: criterion not met

Query: Is normalized growth of C#CCN(C)Cc1ccccc1 strictly below 1?
Response: criterion met

====

Test: chemical genetic growth profiling, strain panel (AID 1159580);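 also: tested at 20 µM; growth read once vehicle control cultures reached saturation at 30 °C; 1 = growth at the plate median or of vehicle wells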
Conditions: S. cerevisiae deletion strains, growth OD, locus YAL021C, strain ccr4
About 2,000 (36%) of roughly 5,500 compounds were called active. Inconclusive results (about 18%) are left out. No stated cut-off is given here; in the data, active means normalized growth mostly below about 0.91 (no sharp cut-off); inconclusive means no clear call, values can overlap the other calls; inactive means mostly above about 0.92. The list shows a part of the results.
Response enum: active, inactive

COMPOUND: COc1cc([C@@H]2c3cc4c(cc3C(OC3O[C@@H]5COC(C)O[C@H]5[C@H](O)[C@H]3O)C3COC(=O)[C@@H]32)OCO4)cc(OC)c1O (some centres undefined)
CAT: inactive

Query: Look up the recorded call for COc1ccc(-c2coc3cc(O)ccc3c2=O)cc1 in this test.
Response: inactive

Query: Look up the recorded call for COc1ccc(-c2coc3cc(O)ccc3c2=O)c(OC)c1 in this test.
Response: inactive

Query: Look up the recorded call for COc1cc([C@@H]2c3cc4c(cc3[C@@H](O)C3COC(=O)C32)OCO4)cc(OC)c1O (some centres undefined) in this test.
Response: inactive

Query: Look up the recorded call for CC(=O)Oc1cc(OC(C)=O)c2c(c1)O[C@H](c1ccc(OC(C)=O)c(OC(C)=O)c1)[C@H](OC(C)=O)C2 in this test.
Response: inactive

Query: Look up the recorded call for CC[C@@]1(O)C[C@H](O[C@H]2C[C@H](N(C)C)[C@H](O)[C@H](C)O2)c2c(cc3c(c2O)C(=O)c2c(O)cccc2C3=O)[C@H]1C(=O)OC in this test.
Response: active

Query: Look up the recorded call for CC1(C)S[C@@H]2[C@H](NC(=O)[C@H](N)c3ccccc3)C(=O)N2[C@H]1C(=O)O in this test.
Response: inactive

====

Give normalized growth for every item shown.
Experiment: chemical genetic growth profiling, strain panel (AID 1159580);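 also: tested at 20 µM; growth read once vehicle control cultures reached saturation at 30 °C; 1 = growth at the plate median or of vehicle wells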
Details: S. cerevisiae deletion strains, growth OD, locus YBR231C, strain swc5, active compounds read low
Out of some 5,500 compounds screened, about 2,000 (36%) were called active. Another 18% or so got no clear call; they are omitted. The list shows a part of the results.
Numbers only.

MOLECULE: NCCS(=O)(=O)O
normalized growth: 0.983

Hey, quick one: what's normalized growth for each of these?
1. O=C(O)c1cc2cc(F)ccc2[nH]1
2. O=S(=O)(O)CCS
3. CC#CC1(O)CCC2C3CCC4=CC(=O)CCC4=C3C(c3ccc(N(C)C)cc3)CC21C (stereo not drawn)
4. NCCCS(=O)(=O)O
5. CC[C@@H]1C=C/C=C/C[C@H](C)[C@@H](O)[C@](C)(O)C(=O)[C@H](C)[C@@H](O)[C@H](C)C(=O)[C@H](C)[C@@H](O)[C@H](C)/C=C/C(=O)O[C@H]2[C@@H](C)[C@@H](CC1)O[C@@]1(CC[C@@H](C)[C@@H](C[C@H](C)O)O1)[C@@H]2C
6. Cn1c(=O)c2c(ncn2CC(O)CO)n(C)c1=O (stereo not drawn)
7. Cc1[nH]c2ccccc2c1CN(C)C

Response:
1. 0.991
2. 1.01
3. 1
4. 1.01
5. 1
6. 1
7. 1.02
